Recorded %max values for a group of compounds are listed next.
Target: Muscarinic acetylcholine receptor M4 (Homo sapiens)
Assay: Positive allosteric modulation of human muscarinic M4 receptor expressed in CHO cells co-expressing Gqi5 assessed as increase in acetylcholine-induced calcium mobilization relative to acetylcholine
Assay type: functional, cell-based

substance smiles	assay system	unit symbol	%max
Cc1c2c(ccc3c(CC(C)(C)C)ncnc32)nn1C	Muscarinic acetylcholine receptor M4 (Homo sapiens)	%	98
Cc1c2c(N)c(C(=O)NC3CN(c4ncc(Cl)cc4F)C3)ccc2nn1C	Muscarinic acetylcholine receptor M4 (Homo sapiens)	%	96
Cc1c2c(ccc3c(N4CC5(COC5)C4)ncnc32)nn1C	Muscarinic acetylcholine receptor M4 (Homo sapiens)	%	90
Cn1nnc2ccc(C(=O)NC3CN(c4ncc(C#N)cc4Cl)C3)c(N)c21	Muscarinic acetylcholine receptor M4 (Homo sapiens)	%	83
Cc1c2c(N)c(C(=O)NC3CN(c4cccc(Cl)n4)C3)ccc2nn1C	Muscarinic acetylcholine receptor M4 (Homo sapiens)	%	78
Cn1nnc2ccc3c(NCc4ccc(C(C)(C)O)cc4)ncnc3c21	Muscarinic acetylcholine receptor M4 (Homo sapiens)	%	97
COc1cc(N2CC(Nc3ncnc4c3ccc3nnn(C)c34)C2)c(Cl)cn1	Muscarinic acetylcholine receptor M4 (Homo sapiens)	%	93
Cc1c2c(ccc3c(NCc4ccc(C(=O)NC5CCC5)cc4)ncnc32)nn1C	Muscarinic acetylcholine receptor M4 (Homo sapiens)	%	100
COc1ccc(CNc2ncnc3c2ccc2nn(C)c(C)c23)cc1F	Muscarinic acetylcholine receptor M4 (Homo sapiens)	%	95
Cc1c2c(ccc3c(NCc4ccc(C(C)(C)O)cc4)ncnc32)nn1C	Muscarinic acetylcholine receptor M4 (Homo sapiens)	%	86
Cn1nnc2ccc(C(=O)NC3CN(c4cccc(Cl)n4)C3)c(N)c21	Muscarinic acetylcholine receptor M4 (Homo sapiens)	%	84

---

Assay: Brain to plasma permeability coefficient, Kp of the compound in Sprague-Dawley rat at 0.2 mg/kg, iv measured after 0.25 hrs
Assay type: ADME, organism-based
Settings: brain and plasma
Recorded Kp at 0.25 h values for a group of compounds are listed next.

substance smiles	Kp at 0.25 h
Cn1nnc2ccc(C(=O)NC3CN(c4cc(Cl)ncc4Cl)C3)c(N)c21	0.17
Cn1nnc2ccc(C(=O)NC3CN(c4cc(Cl)ncc4Cl)C3)cc21	< 0.05
Cc1c2c(N)c(C(=O)NC3CN(c4cc(Cl)ncc4Cl)C3)ccc2nn1C	0.12
Cn1nnc2ccc3c(NC4CN(c5cc(Cl)ncc5Cl)C4)ncnc3c21	0.25
Cc1c2c(ccc3c(NC4CN(c5cc(Cl)ncc5Cl)C4)ncnc32)nn1C	0.21
COc1cc(N2CC(NC(=O)c3ccc4nn(C)c(C)c4c3N)C2)c(Cl)cn1	0.18
COc1cc(N2CC(Nc3ncnc4c3ccc3nn(C)c(C)c34)C2)c(Cl)cn1	1.55
Cc1c2cc(C(=O)NC3CN(c4cc(Cl)ncc4Cl)C3)ccc2nn1C	0.05

---

Biological target: UniProtKB P08485
Sequence (P08485 whole entry): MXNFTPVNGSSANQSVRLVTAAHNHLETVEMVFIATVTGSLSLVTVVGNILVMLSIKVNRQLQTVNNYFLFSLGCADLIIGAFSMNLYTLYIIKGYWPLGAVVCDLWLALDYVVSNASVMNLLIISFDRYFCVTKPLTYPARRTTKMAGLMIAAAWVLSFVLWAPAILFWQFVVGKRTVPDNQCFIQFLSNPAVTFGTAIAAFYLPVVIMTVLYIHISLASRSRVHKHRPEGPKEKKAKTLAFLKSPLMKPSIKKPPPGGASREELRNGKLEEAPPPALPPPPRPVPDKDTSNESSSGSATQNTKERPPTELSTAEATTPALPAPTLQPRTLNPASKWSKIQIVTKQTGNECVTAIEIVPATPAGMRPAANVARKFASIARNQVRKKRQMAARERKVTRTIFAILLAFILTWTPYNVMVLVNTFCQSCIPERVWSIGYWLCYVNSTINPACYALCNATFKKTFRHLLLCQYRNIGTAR
Assay: Positive allosteric modulation of rat muscarinic M4 receptor
pEC50: −log10 of the molar value.

substance smiles	pEC50
COc1cc(N2CC(Nc3ncnc4c3ccc3nn(C)c(C)c34)C2)c(Cl)cn1	6.65
Cc1c2c(ccc3c(NC4CN(c5cc(Cl)ncc5Cl)C4)ncnc32)nn1C	6.60
Cc1c2c(N)c(C(=O)NC3CN(c4ncc(C#N)cc4Cl)C3)ccc2nn1C	6.89
Cc1c2c(N)c(C(=O)NC3CN(c4ncc(Cl)cc4F)C3)ccc2nn1C	7.14
COc1ccc(CNc2ncnc3c2ccc2nn(C)c(C)c23)cc1F	6.74
COc1cc(N2CC(NC(=O)c3ccc4nnn(C)c4c3N)C2)c(Cl)cn1	6.63

---

Test: Unbound fraction in human plasma
Format: ADME, cell-free
Returns label 1 if the recorded fraction unbound is greater than or equal to 0.02, and label 0 otherwise.

substance smiles	group label
COc1cc(N2CC(NC(=O)c3ccc4nn(C)c(C)c4c3N)C2)c(Cl)cn1	label 1
Cc1c2c(ccc3c(NC4CN(c5cc(Cl)ncc5Cl)C4)ncnc32)nn1C	label 0
Cn1nnc2ccc3c(NC4CN(c5cc(Cl)ncc5Cl)C4)ncnc3c21	label 1
Cc1c2c(N)c(C(=O)NC3CN(c4cc(Cl)ncc4Cl)C3)ccc2nn1C	label 1
COc1cc(N2CC(Nc3ncnc4c3ccc3nn(C)c(C)c34)C2)c(Cl)cn1	label 0
Cn1nnc2ccc(C(=O)NC3CN(c4cc(Cl)ncc4Cl)C3)c(N)c21	label 1

---

Target: UniProt P08173
Assay: Positive allosteric modulation of human muscarinic M4 receptor expressed in CHO cells co-expressing Gqi5 assessed as increase in acetylcholine-induced calcium mobilization
pEC50: −log10 of the molar value.
Returns 1 if the recorded pEC50 is greater than or equal to 6, and 0 otherwise.

substance smiles	group label
Cn1nnc2ccc(C(=O)NC3CN(c4ccc(C#N)cn4)C3)c(N)c21	0
Cc1c2c(N)c(C(=O)NC3CN(c4ncc(Cl)cc4F)C3)ccc2nn1C	1
Cc1c2c(ccc3c(NC4CN(c5cc(Cl)ncc5Cl)C4)ncnc32)nn1C	1
Cn1nnc2ccc(C(=O)NC3CN(c4cccc(Cl)n4)C3)c(N)c21	0
Cn1nnc2ccc3c(NC4CN(c5cc(Cl)ncc5Cl)C4)ncnc3c21	1
Cc1c2c(N)c(C(=O)NC3CN(c4ccc(F)c(F)c4)C3)ccc2nn1C	1
Cc1c2c(ccc3c(NCc4ccc(C(C)(C)O)cc4)ncnc32)nn1C	1
Cn1nnc2ccc(C(=O)NC3CN(c4ncc(F)cc4Cl)C3)c(N)c21	0
Cn1nnc2ccc3c(NCc4ccc(C(C)(C)O)cc4)ncnc3c21	0
Cc1c2c(N)c(C(=O)NC3CN(c4ncc(C#N)cc4Cl)C3)ccc2nn1C	1
Cc1c2c(ccc3c(NCc4ccc(C(=O)NC5CCCC5)cc4)ncnc32)nn1C	1
Cn1nnc2ccc(C(=O)NC3CN(c4cc(Cl)ncc4Cl)C3)c(N)c21	1
Cc1c2c(N)c(C(=O)NC3CN(c4ncc(F)cn4)C3)ccc2nn1C	0
Cc1c2c(N)c(C(=O)NC3CN(c4ncccc4F)C3)ccc2nn1C	0
COc1ccc(CNc2ncnc3c2ccc2nn(C)c(C)c23)cc1F	1
Cc1c2c(N)c(C(=O)NC3CN(c4ccc(C(F)(F)F)nc4)C3)ccc2nn1C	1
COc1cc(N2CC(Nc3ncnc4c3ccc3nn(C)c(C)c34)C2)c(Cl)cn1	1
Cc1c2c(ccc3c(N4CCCC4)ncnc32)nn1C	1
Cc1c2c(ccc3c(NCc4ccc(C(=O)NC5CCC5)cc4)ncnc32)nn1C	1
Cn1nnc2ccc(C(=O)NC3CN(c4ncc(C#N)cc4Cl)C3)c(N)c21	1

---

Target: Muscarinic acetylcholine receptor M4 (Homo sapiens) (UniProt P08173)
Sequence (P08173 whole entry): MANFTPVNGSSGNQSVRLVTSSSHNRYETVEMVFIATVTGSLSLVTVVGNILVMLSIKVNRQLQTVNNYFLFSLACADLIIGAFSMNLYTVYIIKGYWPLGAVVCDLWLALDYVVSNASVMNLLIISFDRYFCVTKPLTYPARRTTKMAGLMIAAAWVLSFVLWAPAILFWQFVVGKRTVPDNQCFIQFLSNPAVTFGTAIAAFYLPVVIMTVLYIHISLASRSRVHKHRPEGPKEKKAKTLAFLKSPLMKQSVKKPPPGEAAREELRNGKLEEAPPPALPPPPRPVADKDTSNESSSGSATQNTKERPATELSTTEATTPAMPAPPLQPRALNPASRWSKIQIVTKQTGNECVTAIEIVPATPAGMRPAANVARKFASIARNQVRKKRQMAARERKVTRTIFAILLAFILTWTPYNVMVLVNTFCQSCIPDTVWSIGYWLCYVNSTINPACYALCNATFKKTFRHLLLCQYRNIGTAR
Test: Positive allosteric modulation of human muscarinic M4 receptor expressed in CHO cells co-expressing Gqi5 assessed as increase in acetylcholine-induced calcium mobilization relative to acetylcholine
Assay type: functional, cell-based
Recorded %max values for a group of molecules are listed next.
metric: %max (%)

substance smiles	metric	measured
COc1ccc(CNc2ncnc3c2ccc2nnn(C)c23)cc1F	%max	74
COc1cc(N2CC(NC(=O)c3ccc4nnn(C)c4c3N)C2)c(Cl)cn1	%max	71
Cc1c2c(ccc3c(NCc4ccc(C(=O)NC5CCCC5)cc4)ncnc32)nn1C	%max	100
COc1cc(N2CC(NC(=O)c3ccc4nn(C)c(C)c4c3N)C2)c(Cl)cn1	%max	80
Cc1c2c(N)c(C(=O)NC3CN(c4ccc(F)c(F)c4)C3)ccc2nn1C	%max	85

---

Experiment: Unbound brain-to-plasma concentration ratio in Sprague-Dawley rat at 0.2 mg/kg, iv measured after 0.25 hrs
Assay type: ADME, organism-based
Conditions: brain and plasma, read-out: K(p,uu,brain)
Recorded Kp uu at 0.25 h values for a group of molecules are listed next.

substance smiles	censoring operator	Kp uu at 0.25 h
Cc1c2c(N)c(C(=O)NC3CN(c4cc(Cl)ncc4Cl)C3)ccc2nn1C	=	0.3
COc1cc(N2CC(Nc3ncnc4c3ccc3nn(C)c(C)c34)C2)c(Cl)cn1	=	3.88
Cn1nnc2ccc3c(NC4CN(c5cc(Cl)ncc5Cl)C4)ncnc3c21	=	0.11
Cc1c2c(ccc3c(NC4CN(c5cc(Cl)ncc5Cl)C4)ncnc32)nn1C	=	0.11
Cc1c2cc(C(=O)NC3CN(c4cc(Cl)ncc4Cl)C3)ccc2nn1C	=	0.04
Cn1nnc2ccc(C(=O)NC3CN(c4cc(Cl)ncc4Cl)C3)c(N)c21	=	0.18
Cn1nnc2ccc(C(=O)NC3CN(c4cc(Cl)ncc4Cl)C3)cc21	<	0.11
COc1cc(N2CC(NC(=O)c3ccc4nn(C)c(C)c4c3N)C2)c(Cl)cn1	=	0.25

---

Target: Muscarinic acetylcholine receptor M4 (Homo sapiens)
Experiment: Positive allosteric modulation of human muscarinic M4 receptor expressed in CHO cells co-expressing Gqi5 assessed as increase in acetylcholine-induced calcium mobilization
metric: log10 of EC50 (log10 of the value in nM)

substance smiles	assay system	log10 of EC50
COc1cc(N2CC(NC(=O)c3ccc4nn(C)c(C)c4c3N)C2)c(Cl)cn1	Muscarinic acetylcholine receptor M4 (Homo sapiens)	2.17
COc1ccc(CNc2ncnc3c2ccc2nnn(C)c23)cc1F	Muscarinic acetylcholine receptor M4 (Homo sapiens)	2.77
Cn1nnc2ccc(C(=O)NC3CN(c4ncc(Cl)cc4F)C3)c(N)c21	Muscarinic acetylcholine receptor M4 (Homo sapiens)	2.56
Cc1c2c(N)c(C(=O)NC3CN(c4cc(Cl)ncc4Cl)C3)ccc2nn1C	Muscarinic acetylcholine receptor M4 (Homo sapiens)	2.10
Cn1nnc2ccc(C(=O)NC3CN(c4ccnc(C(F)(F)F)c4)C3)c(N)c21	Muscarinic acetylcholine receptor M4 (Homo sapiens)	2.91
Cc1c2c(ccc3c(N4CC5(COC5)C4)ncnc32)nn1C	Muscarinic acetylcholine receptor M4 (Homo sapiens)	2.72
Cn1nnc2ccc(C(=O)NC3CN(c4ccc(F)c(F)c4)C3)c(N)c21	Muscarinic acetylcholine receptor M4 (Homo sapiens)	3.39
COc1cc(N2CC(Nc3ncnc4c3ccc3nnn(C)c34)C2)c(Cl)cn1	Muscarinic acetylcholine receptor M4 (Homo sapiens)	3.17
Cc1c2c(N)c(C(=O)NC3CN(c4cccc(Cl)n4)C3)ccc2nn1C	Muscarinic acetylcholine receptor M4 (Homo sapiens)	3.16
Cc1c2c(ccc3c(CC(C)(C)C)ncnc32)nn1C	Muscarinic acetylcholine receptor M4 (Homo sapiens)	2.67
COc1cc(N2CC(NC(=O)c3ccc4nnn(C)c4c3N)C2)c(Cl)cn1	Muscarinic acetylcholine receptor M4 (Homo sapiens)	2.57
